System: HOP-62 NSCLC
Experiment: NCI-60 one-dose screen, 48 h (100 = growth as untreated, 0 = no growth, -100 = all killed)
Settings: 10 µM unless noted
The panel holds about 83,000 compounds, 20% with a hit somewhere; the sample as a whole holds those more often.
# label = Met if growth < 80% else Not met

Q: Quick check: does CCOC(=O)/C(F)=C/C1CC1C1CCCCC1 (stereo not given) have growth under 80%?
Ans: Not met

Q: Is it true that growth reported for `CCOC(=O)c1c(NC(=O)c2ccc(F)cc2F)sc2c1CCC(=O)C2` is less than 80%?
Ans: Not met

Q: Hello, I'm reviewing records and need to know if growth of `CCOc1c(C#N)c(Nc2ccc(S(N)(=O)=O)cc2)c(C#N)c2nnc(C)n12` is below 80%. Could you check?
Ans: Not met

Q: Identify whether the molecule `Cc1cc(-c2ccc3nc(N)sc3c2)nc2ccc3[nH]ncc3c12` records growth below 80%.
Ans: Met

Q: Regarding `O=C(O)c1ccc(-n2cc(CNc3ccc(Cl)cc3)c(-c3ccc(F)cc3)n2)cc1` , kindly confirm whether its growth is beneath 80%.
Ans: Not met

Q: Hi there! Is growth for `CCOC(=O)c1c(Nc2ccccc2)nn2c(-c3ccc(OC)c(OC)c3)ccnc12` below 80%, do you know?
Ans: Met

Q: Is growth of `Oc1ccccc1/C=N/Nc1nc(N/N=C/c2ccccc2O)nc(N2CCOCC2)n1` strictly below 80%?
Ans: Met

Q: Is 80% strictly greater than the molecule's reported growth? molecule: `CCCCCCCCNC(=O)c1ccc(Cn2c(CCCC)nc3c(N)nc4ccccc4c32)cc1`
Ans: Met

Q: A record lists `Cc1nc(-c2cc3ccccc3c(N3CCN(C)CC3)n2)cs1` . Is its growth below 80%?
Ans: Not met

Q: growth strictly < 80% for this molecule? `Oc1ccc(CSc2nnc(-c3ccccc3)n2-c2ccccc2)c2cccnc12`
Ans: Met

Q: Field: below-cutoff. Rule: recorded growth strictly less than 80%. Subject: CCN1C(=O)N(CC)C2SC(N/N=C/c3ccc(F)cc3)=NC21 (stereo not given)
Ans: Met

Q: Say whether its growth is strictly beneath 80%. Entry: `COc1ccc(NC(=O)[C@H](C)N)cc1C(=O)Nc1cccc(-c2cc(=O)c3c(OC)c(OC)c(OC)cc3o2)c1`
Ans: Met

Q: Determine whether this molecule shows growth lower than 80% (ties excluded): `COc1ccc(CN2C(=O)/C(=C/c3nc(CO)cs3)SC2=S)cc1`
Ans: Not met

Q: Confirm or reject: growth of CC1(C)CC[C@]2(C(=O)O)CC[C@]3(C)C(=CCC4[C@@]5(C)C[C@@H](O)[C@@H]6OC(c7cccc([N+](=O)[O-])c7)OC[C@@]6(C)C5CC[C@]43C)C2C1 (stereo not given in full) lies strictly below 80%
Ans: Met

Q: Say whether its growth is strictly beneath 80%. Entry: `Oc1ccc(CSc2nnc(-c3ccc(Oc4ccccc4)cc3)o2)c2cccnc12`
Ans: Met

Q: Report whether reported growth is lower than 80% (strictly) for `CCOC(=O)c1c(NCC(=O)Nc2cccc([N+](=O)[O-])c2)sc2c1CCCC2`
Ans: Met

Q: Quick check: growth of `Cn1cc(-c2nn3cc(-c4cccnc4)nc3s2)c2cc(F)ccc21` under 80%?
Ans: Met

Q: Is 80% strictly greater than the molecule's reported growth? molecule: `O=[N+]([O-])c1ccc(-c2nnc(SCc3ccc(O)c4ncccc34)n2-c2ccccc2)cc1`
Ans: Met

Q: Answer whether the molecule `COc1ccc(-c2no[n+]([O-])c2Nc2ccccc2Br)cc1` has growth strictly less than 80%
Ans: Not met

Q: In plain terms, does `COc1ccc(Cn2cc3c(c2-c2ccccc2)CCCc2cnoc2-3)cc1[N+](=O)[O-]` come in under 80% for growth?
Ans: Met
